- Tested on: HIV-1
- test: microbe, parasite or virus in culture
- Type: cell-based, HIV-1 (H9IIIB or NL4-3 virus)
- runConditions: Human immunodeficiency virus 1, read-out: WILD TYPE CELL ASSAY Viking IP (0% NHS) (nM)
valueType: IC50
Remember to put the unit after the number in your answer.

Name the reported IC50 value associated with the molecule CCN1C[C@@H]2C[C@@H](N3CCCC3)c3c(C(=O)NCc4cccc(F)c4F)c(=O)c(O)c(n32)C1=O (single isomer, unassigned) [Compound 43]
10 nM

Thanks! And CCN1C[C@H]2C[C@@H](NS(=O)(=O)c3ccc(C)cc3)c3c(C(=O)NCc4ccc(F)cc4F)c(=O)c(O)c(n32)C1=O [Compound 52] ?
22 nM

Next molecule up: CCN1C[C@@H]2C[C@H](NC(C)=O)c3c(C(=O)NCc4ccc(F)cc4F)c(=O)c(O)c(n32)C1=O [Compound 57]
24 nM

Now consider CCN1C[C@H]2C[C@H](NCC3CC3)c3c(C(=O)NCc4ccc(F)cc4F)c(=O)c(O)c(n32)C1=O [Compound 23] and answer again.
43 nM

Try this molecule next: CCN[C@H]1C[C@@H]2CN(CC)C(=O)c3c(O)c(=O)c(C(=O)NCc4cccc(F)c4F)c1n32 [Compound 17]
14 nM

Lookup CCN1C[C@H]2C[C@@H](NCCC(F)(F)F)c3c(C(=O)NCc4ccc(F)cc4F)c(=O)c(O)c(n32)C1=O [Compound 30]
6 nM

Same question, CCN[C@H]1C[C@@H]2CN(CC)C(=O)c3c(O)c(=O)c(C(=O)NCc4ccc(F)c(Cl)c4F)c1n32 [Compound 15] this time
13 nM

====

- Tested on: HIV-1
- test: microbe, parasite or virus in culture
- Format: cell-based, HIV-1 (H9IIIB or NL4-3 virus)
- runConditions: Human immunodeficiency virus 1, read-out: WILD TYPE CELL ASSAY Viking IP (100% NHS) (nM)
valueType: IC50 (nM)
// return numeric value only (unit: nM, not printed)

Report IC50 for CCN1C[C@@H]2C[C@@H](NC)c3c(C(=O)NCc4ccc(F)cc4F)c(=O)c(O)c(n32)C1=O tested on HIV-1.
17

Would you mind doing CCN[C@@H]1C[C@@H]2CN(CC)C(=O)c3c(O)c(=O)c(C(=O)NCc4cccc(F)c4F)c1n32 as well?
25

Param item: CCN1C[C@H]2C[C@H](N)c3c(C(=O)NCc4ccc(F)cc4F)c(=O)c(O)c(n32)C1=O
4500

// query: [2H]C([2H])([2H])C([2H])([2H])N[C@H]1C[C@@H]2CN(CC)C(=O)c3c(O)c(=O)c(C(=O)NCc4ccc(F)cc4F)c1n32
3720

Next record, please: CCN1C[C@@H]2C[C@@H](NCCCCl)c3c(C(=O)NCc4cccc(Cl)c4F)c(=O)c(O)c(n32)C1=O
22

Here is the next molecule: CCN1C[C@@H]2C[C@@H](N3CCCC3)c3c(C(=O)NCc4cccc(F)c4F)c(=O)c(O)c(n32)C1=O (single isomer, unassigned)
42

Quick one: CCN1C[C@H]2C[C@@H](NCC3CC3)c3c(C(=O)NCc4ccc(F)cc4F)c(=O)c(O)c(n32)C1=O
37

====

- Tested on: HIV-1
- test: microbe, parasite or virus in culture
- Assay type: cell-based, HIV-1 (H9IIIB or NL4-3 virus)
- runConditions: Human immunodeficiency virus 1, read-out: WILD TYPE CELL ASSAY Viking IP (0% NHS) (nM)
So basically, if IC50 comes in under 10 nM it's label 1, and if it's 10 nM or more it's label 0.

Just wondering, is IC50 of CCN1C[C@@H]2C[C@H](NS(C)(=O)=O)c3c(C(=O)NCc4ccc(F)cc4F)c(=O)c(O)c(n32)C1=O [Compound 46] below 10 nM?
label 0

Here is the next compound: CCN1C[C@@H]2C[C@@H](N(C)C)c3c(C(=O)NCc4cccc(Cl)c4F)c(=O)c(O)c(n32)C1=O [Compound 38]
label 1

What do you get for CCN1C[C@@H]2C[C@@H](NS(C)(=O)=O)c3c(C(=O)NCc4ccc(F)cc4F)c(=O)c(O)c(n32)C1=O [Compound 47] ?
label 1

And then CCNC1CC2CN(CCOC)C(=O)c3c(O)c(=O)c(C(=O)NCc4ccc(F)cc4F)c1n32 (single isomer, unassigned) [Compound 65] , what is it?
label 0

How about CCN[C@H]1C[C@H]2CN(CC)C(=O)c3c(O)c(=O)c(C(=O)NCc4ccc(F)cc4F)c1n32 [Compound 10] ?
label 1

Also check CCN[C@@H]1C[C@@H]2CN(CC)C(=O)c3c(O)c(=O)c(C(=O)NCc4cccc(Cl)c4F)c1n32 [Compound 20]
label 1

====

- System: HIV-1
- test: microbe, parasite or virus in culture
- Format: cell-based, HIV-1 (H9IIIB or NL4-3 virus)
- runConditions: Human immunodeficiency virus 1, read-out: WILD TYPE CELL ASSAY Viking IP (0% NHS) (nM)
I'd be grateful if you could share measured IC50 for these entries.

Tell me reported IC50 for CCCN[C@@H]1C[C@@H]2CN(CC)C(=O)c3c(O)c(=O)c(C(=O)NCc4ccc(F)cc4F)c1n32 , tested with HIV-1.
11 nM

Would you mind doing CCN1C[C@@H]2C[C@@H](NCCCCl)c3c(C(=O)NCc4cccc(Cl)c4F)c(=O)c(O)c(n32)C1=O as well?
2 nM

Also need CCN1C[C@H]2C[C@@H](NC)c3c(C(=O)NCc4ccc(F)cc4F)c(=O)c(O)c(n32)C1=O , thanks.
2 nM

Next: CCN[C@@H]1C[C@@H]2CN(CC)C(=O)c3c(O)c(=O)c(C(=O)NCc4ccc(F)cc4F)c1n32
10 nM

Would you kindly repeat that for CCN1C[C@H]2C[C@H](NCCC(F)(F)F)c3c(C(=O)NCc4ccc(F)cc4F)c(=O)c(O)c(n32)C1=O ?
7 nM

Then what about the compound [2H]C([2H])([2H])C([2H])([2H])N[C@H]1C[C@@H]2CN(CC)C(=O)c3c(O)c(=O)c(C(=O)NCc4ccc(F)cc4F)c1n32 ?
5 nM

Request: CCN1C[C@H]2C[C@@H](NCC3CC3)c3c(C(=O)NCc4ccc(F)cc4F)c(=O)c(O)c(n32)C1=O
20 nM

====

- System: HIV-1
- test: microbe, parasite or virus in culture
- Format: cell-based, HIV-1 (H9IIIB or NL4-3 virus)
- runConditions: read-out: WILD TYPE CELL ASSAY Viking IP (0% NHS)
Hi there, I'd appreciate the recorded IC50 for every entry that follows.
Answer format: number, then unit.

Item CCCN1CC2CC(NS(C)(=O)=O)c3c(C(=O)NCc4ccc(F)cc4F)c(=O)c(O)c(n32)C1=O (single isomer, unassigned) [Compound 69] has what recorded IC50?
7 nM

Cool, now CCCN1CC2CC(NS(C)(=O)=O)c3c(C(=O)NCc4ccc(F)cc4F)c(=O)c(O)c(n32)C1=O (single isomer, unassigned) [Compound 71]
3 nM

Likewise for CCN1C[C@@H]2C[C@@H](N)c3c(C(=O)NCc4ccc(F)cc4F)c(=O)c(O)c(n32)C1=O [Compound 1] ?
2 nM

Same thing, different compound: CCN1C[C@@H]2C[C@H](N)c3c(C(=O)NCc4ccc(F)cc4F)c(=O)c(O)c(n32)C1=O [Compound 2]
12 nM

Ok, now CCN1C[C@@H]2CC(NC(=O)C(=O)N(C)C)c3c(C(=O)NCc4ccc(F)cc4F)c(=O)c(O)c(n32)C1=O (stereo partly drawn) [Compound 59]
6 nM

Would you kindly repeat that for CCCN1CC2CC(NS(C)(=O)=O)c3c(C(=O)NCc4ccc(F)cc4F)c(=O)c(O)c(n32)C1=O (single isomer, unassigned) [Compound 70] ?
20 nM

====

- Test system: HIV-1
- test: microbe, parasite or virus in culture
- Assay type: cell-based, HIV-1 (H9IIIB or NL4-3 virus)
- runConditions: read-out: WILD TYPE CELL ASSAY Viking IP (0% NHS)
pIC50: −log10 of the molar value.
Record True whenever pIC50 is at 8 or higher; record False when lower.

Is pIC50 for CCN1C[C@@H]2C[C@@H](N(C)C)c3c(C(=O)NCc4ccc(F)cc4F)c(=O)c(O)c(n32)C1=O [Compound 37] at or above 8?
True

Now try CCN1C[C@H]2CC(N3CCCC3)c3c(C(=O)NCc4ccc(F)cc4F)c(=O)c(O)c(n32)C1=O (single isomer, unassigned) [Compound 35] .
False

// repeat for CCN1C[C@@H]2CC(N3CCCC3)c3c(C(=O)NCc4ccc(F)cc4F)c(=O)c(O)c(n32)C1=O (single isomer, unassigned) [Compound 34] and report
False
